- method.description: cells
- details: Homo sapiens, ECa-109, 48 h
measurement.kind: IC50 (µM)
Write the answer as a number in µM, unit excluded.

Reference set, count: 2
cpd.smiles | unit.text | IC50
CC(=O)O[C@H]1C(=O)[C@@]2(C)[C@H]([C@H](OC(=O)c3ccccc3)[C@]3(O)C[C@H](OC(=O)[C@H](O)[C@@H](NC(=O)c4ccccc4)c4ccccc4)C(C)=C1C3(C)C)[C@]1(OC(C)=O)CO[C@@H]1C[C@@H]2O | µM | 0.94
COc1ccc(CCOC(=O)/C=C/c2ccc(O)c(O)c2)cc1 | µM | 111

Consider now this further compound.
[ask] Reported IC50, compound Cc1cccc(CCOC(=O)/C=C/c2ccc(O)c(O)c2)c1 : ____
[reply] 16.7

Ref: ChEMBL document CHEMBL3872276
